Listing of recorded melting point by entry.

[[record]]
molecule = "CC(=O)OC1(C(N)=O)CCCc2cc(C)cnc21 (stereo unspecified)"
assay_metric = "melting point"
measured_value = "205 °C"

[[record]]
molecule = "CCOC(=O)/C=C(C)/C=C/C=C(\\C)C1=Cc2cc(C(C)(C)C)ccc2OC1"
assay_metric = "melting point"
measured_value = "129 °C"


Q. Looking for the measured melting point of "Cc1c(C)c(N2CCN(c3ccc(OC(F)(F)F)cc3)CC2)c(C)c2c1OC(C)(C)C2" , can you help?
A. 216 to 219 °C

Q. Please answer likewise for "CCCO[C@@H]1[C@@H](OC)[C@H](C)O[C@@H](OC(=O)Nc2ccc(-c3ncn(-c4ccc(OC(F)(F)C(F)(F)F)cc4)n3)cc2)[C@@H]1OC"
A. 158 °C

Q. # iterate: "CC(C)n1nc(-c2sc(C(=O)NC3CC3)nc2-c2ccccc2)ccc1=O"
A. 127 to 128 °C

---

melting point overview

Here is how some compounds turned out for melting point.
[[record]]
structure_string = "COc1cc(I)cc(C(N)=O)c1"
measured_value = "175 to 176 °C"

[[record]]
structure_string = "COc1ccc(N2CCN(c3c(C)c(C)c4c(c3C)CC(C)(C)O4)CC2)cn1"
measured_value = "178 to 180 °C"


Consider the additional compound presented here.
Q. So what's the measured melting point for this one? "CCOC(=O)C(=Cc1ccc(C)s1)C(=O)OCC"
A. 53 to 56 °C

---

Assay Metric: melting point

Worked cases, answers included:
[[record]]
compound = "CCCCn1c(=O)c2c(ncn2S(=O)(=O)c2ccc(N(OC(C)=O)C(C)=O)cc2)n(CCCC)c1=O"
measured_value = "155 to 157 °C"

[[record]]
compound = "FC(F)(c1ccccc1)C(F)(F)c1ccccc1Br"
measured_value = "54 to 55 °C"

[[record]]
compound = "COc1ccc2c(c1)c(C1CCN(Cc3cccc(C(=O)O)c3)CC1)cn2CCc1ccsc1"
measured_value = "217 to 218 °C"

[[record]]
compound = "CC1OC(=O)N2c3ccc(O)cc3CCC12 (centres undefined)"
measured_value = "258 to 259 °C"

[[record]]
compound = "Cc1c(C)n(Cc2ccccc2)c2ncnc(Cl)c12"
measured_value = "115 to 116 °C"

[[record]]
compound = "O=S(=O)(On1nnc2ccc(Cl)cc21)c1ccccc1"
measured_value = "110 °C"


Q. Field request: melting point | item: "COC(=O)c1ccccc1SCOc1ccc(Cl)cc1Cl"
A. 122 to 124 °C

Q. Try the compound "CCCc1cnc(N2CCC(c3ccc(COc4ccc(C#N)c(F)c4)nc3)CC2)nc1"
A. 118 to 120 °C

Q. Next compound up: "CCOc1cnccc1C#N"
A. 56 to 57 °C

---

Catalogue of melting point readings, one per entry.

[[record]]
molecule = "COC(=O)c1ccc(Cc2cc3cc(Cl)ccc3n2S(C)(=O)=O)cc1"
assay_metric = "melting point"
measured_value = "143 °C"

[[record]]
molecule = "CCOC(=O)c1cnncc1NC(=O)Cc1c(F)cc(F)cc1F"
assay_metric = "melting point"
measured_value = "143 to 144 °C"


Q. Need melting point of CCC(O)(c1ccc(OCCN(C)C)cc1)c1cccc(Cl)c1 (stereo not given) , thanks.
A. 108 to 109 °C

Q. And the next one, "CCCOc1cccc2c1OCN(CCc1ccccc1)C2" ?
A. 84 °C

Q. Query "O=S(=O)(c1ccccc1)n1c2ccc(C=Cc3ccccc3)cc2c2cc(Cl)cnc21" next
A. 190 to 192 °C

Q. Entry to check: "CSc1cccc(-c2ccccc2)c1S(N)(=O)=O"
A. 167 to 168 °C

Q. What about this molecule? "COc1cc(C(C)C)c(NC(=O)CN2CCN(CCSc3nc4ccccc4o3)CC2)c(C(C)C)c1"
A. 115 to 117 °C

Q. Try this molecule too: "CCNC(=O)c1ccc(N2CCN(Cc3cnc4c(c3)[nH]c(=O)n3cccc43)CC2)c(C)c1"
A. 255 to 258 °C

Q. Request: "CN(C)CCCOc1ccc(-c2nnc(-c3ccc(Oc4ccccc4)cc3)o2)cc1"
A. 95 °C

Q. How about "NS(=O)(=O)c1nc(-c2ccccc2F)ns1" ?
A. 177 to 179 °C
